tested target: Torsin-1A (Homo sapiens) (UniProt O14656)
Sequence (O14656 whole entry, looked up): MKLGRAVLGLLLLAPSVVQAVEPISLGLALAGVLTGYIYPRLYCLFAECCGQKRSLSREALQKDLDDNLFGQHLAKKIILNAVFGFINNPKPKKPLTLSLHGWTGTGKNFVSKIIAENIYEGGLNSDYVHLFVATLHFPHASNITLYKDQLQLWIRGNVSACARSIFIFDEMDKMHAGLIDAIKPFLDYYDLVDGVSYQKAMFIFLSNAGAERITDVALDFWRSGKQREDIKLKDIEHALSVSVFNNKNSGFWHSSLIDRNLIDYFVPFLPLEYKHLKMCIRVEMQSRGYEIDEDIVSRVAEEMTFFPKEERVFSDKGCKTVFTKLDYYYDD
protocol text: torsin A mutant lysate binding on microarrays – cell lysate, small-molecule microarray, COS7 lysate, 635/667 nm fluorescence, primary screen (AID 1150);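 note: score pools 667 nm emission and signal to noise measuring lysate protein binding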
recorded conditions: COS7 hTOR1A mutant lysate, 635 nm fluorescence, higher = more signal
readout name: composite z-score

// query composite z-score lookup needed for COCCOC(=O)N1C(=O)[C@@]2(c3cc(C#CC4(O)CCCCCC4)ccc31)[C@H](C(=O)Nc1nc3ccccc3s1)[C@H]1C(=O)O[C@H](c3ccccc3)[C@H](c3ccccc3)N1[C@@H]2c1ccc(OCCO)cc1 , thanks.
// result 0.849

// query composite z-score lookup needed for COc1ccc(CCNC(=O)[C@@]2(c3ccc([N+](=O)[O-])cc3)CC(=O)N(CC34CC5CC(CC(C5)C3)C4)[C@@H]2c2ccc(CO)cc2I)cc1 , thanks.
// result 1.05

// query For the compound CC(C)=CCCC(C)=CC(O)C1C=CC2C(=O)N(c3ccccc3)C(=O)C2N1Nc1ccc(C(C)C)cc1 (stereo not given) , what composite z-score is on record?
// result -0.151

// query Consider the compound shown here: NC(=O)N1C(=O)C2C(C1=O)C1C=C(CCCO)C2C(C2CC2)N1Cc1cc2c(cc1Br)OCO2 (stereo not given) What is its recorded composite z-score?
// result 0.28

// query Report composite z-score for CC(C)OC(=O)C=C1C[C@@H](c2cccc(Cl)c2)O[C@@H](c2cccc(Cl)c2)O1 please.
// result -0.365

// query Entry under review: CN1C(=O)C2C=CC(C(O)c3c(F)cccc3Cl)N(NC(=O)OC(C)(C)C)C2C1=O (stereo not given) . Reported composite z-score?
// result 0.591

// query Look at this compound and give its reported composite z-score. O=C1C2C=CC(C(O)C=Cc3ccc([N+](=O)[O-])cc3)N(n3cnnc3)C2C(=O)N1Cc1ccccc1 (stereo not given)
// result 2.16

// query Query: composite z-score; subject: CN(C)C(=O)[C@]1(Cc2ccccc2)N=C(c2ccc(OCCCO)cc2)O[C@@H]1c1ccccc1N=[N+]=[N-]
// result 0.523

// query Quick check: composite z-score of O=C(O)C1N=C(c2ccc(OCCCO)cc2)N(c2ccccc2)O1 (stereo not given) ?
// result 1.72

// query So what does the record say about composite z-score for C[N+](C)(C)CCCC[C@@H]1NC(=O)[C@@H]2C[C@H](C(=O)NCCCCCN)[C@H](c3ccc(O)cc3)N2C1=O ?
// result 0.659

// query Look at this compound and give its reported composite z-score. CCN(CC)c1ccc(N2CC=CC34O[C@@H]5C=CCOC(=O)[C@@H]5[C@H]3C(=O)N(CCCCCCO)[C@@H]4C2=O)cc1 (stereo not given in full)
// result 0.339
